Values compiled from ChEMBL document CHEMBL1135198.

# pKi annotations
biological target: Histamine H3 receptor (Rattus norvegicus); assay: Binding affinity for the rat cortical Histamine H3 receptor
Here pKi is given on a logarithmic scale as minus log10 of the concentration in mol/L.

// worked examples, pKi included
INSERT INTO results (entrysmiles, measvalue) VALUES
  ('CCOC(=O)N1CCN(CCCOc2ccc(C(=O)C3CCCCC3)cc2)CC1', 7.60),
  ('CCCCCC(=O)c1ccc(OCCCN2CCN(C(=O)Cc3ccccc3)CC2)cc1', 8.00),
  ('CCCCCC(=O)c1ccc(OCCCN2CCN(C(=O)c3ccccc3)CC2)cc1', 7.44),
  ('CCCCCC(=O)c1ccc(OCCCN2CCN(C(=O)c3occc3C)CC2)cc1', 8.07),
  ('CCCCCC(=O)c1ccc(OCCCN2CCNCC2)cc1', 7.57),
  ('CCCCCC(=O)c1ccc(OCCCN2CCN(C(=O)c3cccn3C)CC2)cc1', 8.39);

Exam item: Please report the recorded pKi for CCOC(=O)N1CCN(CCCOc2ccc(C(=O)C3CC3)cc2)CC1 .
Marked response: 8.33

Exam item: Please report the recorded pKi for CCCCCC(=O)c1ccc(OCCCN2CCN(C(=O)c3ccco3)CC2)cc1 .
Marked response: 7.98

Exam item: Please report the recorded pKi for CCCCCC(=O)c1ccc(OCCCN2CCN(CC3CC3)CC2)cc1 .
Marked response: 7.80

---

target: Histamine H1 receptor (Homo sapiens)
Sequence (P35367 whole entry): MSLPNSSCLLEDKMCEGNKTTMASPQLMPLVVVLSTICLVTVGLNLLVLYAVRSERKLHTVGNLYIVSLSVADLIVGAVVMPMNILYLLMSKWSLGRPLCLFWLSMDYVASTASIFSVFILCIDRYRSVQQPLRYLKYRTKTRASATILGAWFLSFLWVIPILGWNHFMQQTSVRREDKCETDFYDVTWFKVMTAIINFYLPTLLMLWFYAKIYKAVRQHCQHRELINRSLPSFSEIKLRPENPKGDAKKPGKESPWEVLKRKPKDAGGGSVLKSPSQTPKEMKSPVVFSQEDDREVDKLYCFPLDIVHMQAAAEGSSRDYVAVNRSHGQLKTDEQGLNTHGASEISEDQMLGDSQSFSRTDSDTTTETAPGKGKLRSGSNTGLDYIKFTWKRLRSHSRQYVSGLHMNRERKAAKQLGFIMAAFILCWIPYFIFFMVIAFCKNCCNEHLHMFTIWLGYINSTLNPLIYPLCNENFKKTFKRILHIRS
measuredParameter: log10 Ki (log10 of the value in µM)
For clarity, the numbers are log10 values of Ki expressed in µM.

// worked examples, log10 Ki included
INSERT INTO assay_data (entrysmiles, measvalue) VALUES
  ('CCOC(=O)N1CCN(CCCOc2ccc(C(=O)c3ccc(SC)cc3)cc2)CC1', -0.35),
  ('CCOC(=O)N1CCN(CCCOc2ccc(C(=O)CC(C)C)cc2)CC1', -0.03),
  ('CCCCCC(=O)c1ccc(OCCCN2CCN(C(=O)C3CCC3)CC2)cc1', -0.45),
  ('CCCCCC(=O)c1ccc(OCCCN2CCN(C(=O)OCCCC)CC2)cc1', -0.24),
  ('CCOC(=O)N1CCN(CCCOc2ccc(C(=O)/C=C/c3cccnc3)cc2)CC1', -0.37),
  ('CCCCCC(=O)c1ccc(OCCCN2CCN(CCCC)CC2)cc1', -0.18),
  ('CCCCCC(=O)c1ccc(OCCCN2CCN(C(=O)c3cnco3)CC2)cc1', 0.63),
  ('CCCCCC(=O)c1ccc(OCCCN2CCN(C(=O)NCC)CC2)cc1', 0.20),
  ('CCCCCC(=O)c1ccc(OCCCN2CCN(C(=O)c3ccccc3)CC2)cc1', -0.54),
  ('CCCCCC(=O)c1ccc(OCCCN2CCN(C(=O)Cc3ccccc3)CC2)cc1', -1.25);

Exam item: Please report the recorded log10 Ki for CCCCCC(=O)c1ccc(OCCCN2CCN(C(=O)OCC(C)C)CC2)cc1 .
Marked response: -0.56

---

Entries with reported Ki on Histamine H2 receptor (Homo sapiens)
Report only the number, with the unit µM understood.

// worked examples, Ki included
INSERT INTO results (entrysmiles, unitname, measvalue) VALUES
  ('CCCCCCCC(=O)c1ccc(OCCCN2CCN(C(=O)OCC)CC2)cc1', 'µM', 2.14),
  ('CCCCCC(=O)c1ccc(OCCCN2CCN(S(C)(=O)=O)CC2)cc1', 'µM', 83.2),
  ('CCCCCC(=O)c1ccc(OCCCN2CCN(C(=O)C(C)C)CC2)cc1', 'µM', 29.5),
  ('CCOC(=O)N1CCN(CCCOc2ccc(C(=O)CC(C)C)cc2)CC1', 'µM', 69.2),
  ('CCOC(=O)N1CCN(CCCOc2ccc(C(=O)/C=C/c3ccc(OC)cc3)cc2)CC1', 'µM', 6.76),
  ('CCCCCC(=O)c1ccc(OCCCN2CCN(C(=O)C3CC3)CC2)cc1', 'µM', 31.6),
  ('CCCCCC(=O)c1ccc(OCCCN2CCN(C(=O)c3cnco3)CC2)cc1', 'µM', 27.5),
  ('CCOC(=O)N1CCN(CCCOc2ccc(C(=O)c3cccc(C)c3)cc2)CC1', 'µM', 3.72);

With those in mind, consider the next compound.
Exam item: # get_value(readout= Ki, system= Histamine H2 receptor (Homo sapiens)) for CCOC(=O)N1CCN(CCCOc2ccc(C(=O)c3ccc(F)cc3)cc2)CC1
Marked response: 42.7

---

Entries with reported Ki on UniProt:P35367
Answers without a unit are incomplete; give the number and then its unit.

// worked examples, Ki included
INSERT INTO measurements (entrysmiles, measvalue) VALUES
  ('CCOC(=O)N1CCN(CCCOc2ccc(C(=O)c3ccc(OC)cc3)cc2)CC1', '813 nM'),
  ('CCCCCC(=O)c1ccc(OCCCN2CCN(C(=O)c3cnccn3)CC2)cc1', '2040 nM'),
  ('CCCCCC(=O)c1ccc(OCCCN2CCN(C(=O)C3CC3)CC2)cc1', '1780 nM');

With those in mind, consider the next compound.
Exam item: Please report the recorded Ki for CCCCCC(=O)c1ccc(OCCCN2CCN(C(=O)c3cccn3C)CC2)cc1 .
Marked response: 56.2 nM

---

target: Histamine H2 receptor (Homo sapiens, UniProt P25021)
Sequence (P25021 whole entry): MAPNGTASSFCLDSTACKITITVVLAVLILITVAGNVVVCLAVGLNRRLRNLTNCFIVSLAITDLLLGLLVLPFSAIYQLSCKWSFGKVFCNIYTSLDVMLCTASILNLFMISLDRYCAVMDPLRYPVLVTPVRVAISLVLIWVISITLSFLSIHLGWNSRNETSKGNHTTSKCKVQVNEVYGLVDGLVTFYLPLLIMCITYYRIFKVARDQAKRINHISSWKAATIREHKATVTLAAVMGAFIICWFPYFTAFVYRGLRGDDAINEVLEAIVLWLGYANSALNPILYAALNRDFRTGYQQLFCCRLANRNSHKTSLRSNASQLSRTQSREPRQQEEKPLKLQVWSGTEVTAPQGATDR
pKi: −log10 of the molar value.
Please mark Yes if the recorded pKi is equal to or greater than 5, and No if it falls below.

Take a look at these entries with their results.
INSERT INTO results (entrysmiles, system, classification) VALUES
  ('CCCCCC(=O)c1ccc(OCCCN2CCN(C(=O)CCC)CC2)cc1', 'Histamine H2 receptor (Homo sapiens, UniProt P25021)', 'No'),
  ('CCCCCCCCC(=O)c1ccc(OCCCN2CCN(C(=O)OCC)CC2)cc1', 'Histamine H2 receptor (Homo sapiens, UniProt P25021)', 'Yes'),
  ('CCCCCC(=O)c1ccc(OCCCN2CCN(Cc3nccs3)CC2)cc1', 'Histamine H2 receptor (Homo sapiens, UniProt P25021)', 'Yes'),
  ('CCCCCC(=O)c1ccc(OCCCN2CCN(C(=O)c3cnccn3)CC2)cc1', 'Histamine H2 receptor (Homo sapiens, UniProt P25021)', 'No'),
  ('CCOC(=O)N1CCN(CCCOc2ccc(C(=O)C=C(C)C)cc2)CC1', 'Histamine H2 receptor (Homo sapiens, UniProt P25021)', 'No');

Exam item: Hi, just wondering whether CCCCCC(=O)c1ccc(OCCCN2CCN(C(=O)c3ccncc3)CC2)cc1 shows pKi of 5 or higher.
Marked response: No

Exam item: Hi, just wondering whether CCCCCC(=O)c1ccc(OCCCN2CCN(C(=O)OC(C)C)CC2)cc1 shows pKi of 5 or higher.
Marked response: No

Exam item: Hi, just wondering whether CCCCCC(=O)c1ccc(OCCCN2CCN(C(=O)OCCCC)CC2)cc1 shows pKi of 5 or higher.
Marked response: Yes

---

Entries with reported pKi on Histamine H3 receptor (Rattus norvegicus, UniProt Q9QYN8)
Sequence (Q9QYN8 whole entry): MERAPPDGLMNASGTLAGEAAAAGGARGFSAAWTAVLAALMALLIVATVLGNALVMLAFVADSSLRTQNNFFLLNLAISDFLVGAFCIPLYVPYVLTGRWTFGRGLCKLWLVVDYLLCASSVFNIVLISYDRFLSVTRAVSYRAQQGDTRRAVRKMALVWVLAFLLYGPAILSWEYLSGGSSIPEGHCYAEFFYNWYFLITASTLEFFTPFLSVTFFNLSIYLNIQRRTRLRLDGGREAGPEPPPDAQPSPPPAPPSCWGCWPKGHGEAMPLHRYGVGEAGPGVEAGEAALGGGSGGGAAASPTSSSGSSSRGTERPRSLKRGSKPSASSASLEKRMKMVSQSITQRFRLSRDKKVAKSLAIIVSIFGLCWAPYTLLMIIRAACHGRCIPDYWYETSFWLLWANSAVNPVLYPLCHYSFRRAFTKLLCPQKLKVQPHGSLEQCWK
Here pKi is given on a logarithmic scale as minus log10 of the concentration in mol/L.

INSERT INTO measurements (entrysmiles, system, measuredparameter, measvalue) VALUES
  ('CCCCCC(=O)c1ccc(OCCCN2CCCCC2)cc1', 'Histamine H3 receptor (Rattus norvegicus, UniProt Q9QYN8)', 'pKi', 7.20);

Exam item: # get_value(readout= pKi, system= Histamine H3 receptor (Rattus norvegicus, UniProt Q9QYN8)) for CCCCCCCCC(=O)c1ccc(OCCCN2CCN(C(=O)OCC)CC2)cc1
Marked response: 8.10

Exam item: # get_value(readout= pKi, system= Histamine H3 receptor (Rattus norvegicus, UniProt Q9QYN8)) for C=C(C)C(=O)c1ccc(OCCCN2CCN(C(=O)OCC)CC2)cc1
Marked response: 7.26

Exam item: # get_value(readout= pKi, system= Histamine H3 receptor (Rattus norvegicus, UniProt Q9QYN8)) for CCCCCC(=O)c1ccc(OCCCN2CCN(C(=O)c3ccccn3)CC2)cc1
Marked response: 7.28

---

biological target: UniProt Q9QYN8
pKi: −log10 of the molar value.
Please mark 1.0 if the recorded pKi is equal to or greater than 8, and 0.0 if it falls below.

INSERT INTO results (entrysmiles, classification) VALUES
  ('CCCCCC(=O)c1ccc(OCCCC2CCNCC2)cc1', 0.0),
  ('CCCCCC(=O)c1ccc(OCCCN2CCN(C(=O)OC(C)C)CC2)cc1', 1.0);

Below: the item to evaluate.
Exam item: Hi, just wondering whether CCOC(=O)N1CCN(CCCOc2ccc(C(=O)c3cccc(F)c3F)cc2)CC1 shows pKi of 8 or higher.
Marked response: 0.0

---

molecular target: Histamine H2 receptor (Homo sapiens, UniProt P25021)
# pKi annotations
Here pKi is given on a logarithmic scale as minus log10 of the concentration in mol/L.

// worked examples, pKi included
INSERT INTO results (entrysmiles, system, measuredparameter, measvalue) VALUES
  ('CCCCCC(=O)c1ccc(OCCCN2CCN(CCCC)CC2)cc1', 'Histamine H2 receptor (Homo sapiens, UniProt P25021)', 'pKi', 5.12),
  ('CCCCCC(=O)c1ccc(OCCCN2CCN(C(=O)c3cccs3)CC2)cc1', 'Histamine H2 receptor (Homo sapiens, UniProt P25021)', 'pKi', 4.83),
  ('CCCCCC(=O)c1ccc(OCCCN2CCN(C(=O)N3CCOCC3)CC2)cc1', 'Histamine H2 receptor (Homo sapiens, UniProt P25021)', 'pKi', 4.75),
  ('CCCCCC(=O)c1ccc(OCCCN2CCN(C(=O)Cc3ccccc3)CC2)cc1', 'Histamine H2 receptor (Homo sapiens, UniProt P25021)', 'pKi', 5.05),
  ('CCCCCC(=O)c1ccc(OCCCN2CCN(C(=O)CSCC)CC2)cc1', 'Histamine H2 receptor (Homo sapiens, UniProt P25021)', 'pKi', 4.64),
  ('C=C(C)C(=O)c1ccc(OCCCN2CCN(C(=O)OCC)CC2)cc1', 'Histamine H2 receptor (Homo sapiens, UniProt P25021)', 'pKi', 4.65),
  ('CCCCCC(=O)c1ccc(OCCCN2CCN(S(=O)(=O)c3ccc(C#N)cc3)CC2)cc1', 'Histamine H2 receptor (Homo sapiens, UniProt P25021)', 'pKi', 4.91),
  ('CCOC(=O)N1CCN(CCCOc2ccc(C(=O)C3CCCCC3)cc2)CC1', 'Histamine H2 receptor (Homo sapiens, UniProt P25021)', 'pKi', 5.10);

Exam item: # get_value(readout= pKi, system= Histamine H2 receptor (Homo sapiens, UniProt P25021)) for CCCCCC(=O)c1ccc(OCCCN2CCN(S(=O)(=O)C(C)C)CC2)cc1
Marked response: 4.68

Exam item: # get_value(readout= pKi, system= Histamine H2 receptor (Homo sapiens, UniProt P25021)) for CCCC(=O)c1ccc(OCCCN2CCN(C(=O)OCC)CC2)cc1
Marked response: 4.65

Exam item: # get_value(readout= pKi, system= Histamine H2 receptor (Homo sapiens, UniProt P25021)) for CCOC(=O)N1CCN(CCCOc2ccc(C(=O)C3CC3)cc2)CC1
Marked response: 4.10

Exam item: # get_value(readout= pKi, system= Histamine H2 receptor (Homo sapiens, UniProt P25021)) for CCOC(=O)N1CCN(CCCOc2ccc(C(=O)CC)cc2)CC1
Marked response: 4.25

Exam item: # get_value(readout= pKi, system= Histamine H2 receptor (Homo sapiens, UniProt P25021)) for CCOC(=O)N1CCN(CCCOc2ccc(C(=O)c3ccc(SC)cc3)cc2)CC1
Marked response: 5.21

Exam item: # get_value(readout= pKi, system= Histamine H2 receptor (Homo sapiens, UniProt P25021)) for CCOC(=O)N1CCN(CCCOc2ccc(C(C)=O)cc2)CC1
Marked response: 4.40
